Molecular target: androgen receptor (AR) (Homo sapiens)
Construct: AR from LNCaP cytosol (LBD site)
Sequence (P10275 1-920): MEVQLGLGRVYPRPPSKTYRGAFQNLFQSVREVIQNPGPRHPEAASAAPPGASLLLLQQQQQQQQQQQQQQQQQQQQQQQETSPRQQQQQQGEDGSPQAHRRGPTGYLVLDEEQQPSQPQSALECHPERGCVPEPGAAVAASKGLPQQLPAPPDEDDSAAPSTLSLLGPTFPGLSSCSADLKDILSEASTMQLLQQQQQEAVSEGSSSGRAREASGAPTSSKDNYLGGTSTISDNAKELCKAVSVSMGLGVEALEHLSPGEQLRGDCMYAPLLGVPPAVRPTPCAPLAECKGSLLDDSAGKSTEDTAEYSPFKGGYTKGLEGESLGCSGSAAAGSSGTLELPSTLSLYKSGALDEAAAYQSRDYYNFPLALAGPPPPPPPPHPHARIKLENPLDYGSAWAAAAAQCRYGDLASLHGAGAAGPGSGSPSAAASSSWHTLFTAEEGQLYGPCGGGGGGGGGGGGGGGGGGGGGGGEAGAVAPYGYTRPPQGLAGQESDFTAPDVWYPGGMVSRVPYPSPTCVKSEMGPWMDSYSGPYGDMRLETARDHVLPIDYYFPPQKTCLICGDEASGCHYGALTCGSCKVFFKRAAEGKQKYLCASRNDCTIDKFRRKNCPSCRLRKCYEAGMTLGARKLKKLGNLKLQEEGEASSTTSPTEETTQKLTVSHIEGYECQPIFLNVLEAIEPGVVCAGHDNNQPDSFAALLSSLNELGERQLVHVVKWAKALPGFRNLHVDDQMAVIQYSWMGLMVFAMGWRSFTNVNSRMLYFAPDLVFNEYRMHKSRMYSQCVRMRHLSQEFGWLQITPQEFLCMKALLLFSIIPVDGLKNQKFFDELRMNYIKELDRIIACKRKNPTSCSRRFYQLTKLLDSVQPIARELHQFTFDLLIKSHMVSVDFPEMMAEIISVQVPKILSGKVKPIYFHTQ
Assay: [3H]DHT competitive radioligand binding; also BLI and FP on AR LBD, and SPR (KD […]) and BLI on AR AF1 ([…] aa)
measurement-label: pIC50
A value of pIC50 is the negative decimal logarithm of a concentration given in moles per litre.

[Q] Quick check: pIC50 of Cc1noc(C)c1COc1ccc(C(=O)Nc2nc(-c3cccs3)cs2)cc1 [Z15] ?
[A] 7.20
